experiment: Selectivity ratio of IC50 for cytotoxicity against human MRC5 cells assessed as inhibition of cell growth to MIC for antibacterial activity against methicillin-resistant Staphylococcus aureus NMI 664 K assessed as inhibition of microbial growth by broth-microdilution method; format: toxicity, cell-based
OBSERVED PROPERTY: selectivity ratio

compound=C[Si]1(C)OB(O)c2ccc(SCC(=O)c3ccccc3)c(F)c21 result=40.4
compound=CC(=O)CSc1ccc2c(c1F)[Si](C)(C)OB2O result="> 32"
compound="C[Si]1(C)OB(O)c2cc(F)c(SC3CC(=O)NC3=O)c(F)c21 (configuration not stated)" result=13.4
compound=C[Si]1(C)OB(O)c2ccc(SC(=O)c3ccc(C(F)(F)F)cc3)c(F)c21 result=8.9
compound=C[Si]1(C)OB(O)c2cc(F)c(SCCS(=O)(=O)c3ccccc3)c(F)c21 result=19.5
compound=CCOP(=O)(OCC)Sc1c(F)cc2c(c1F)[Si](C)(C)OB2O result="> 32"
compound=C[Si]1(C)OB(O)c2cc(F)c(SCCC#N)c(F)c21 result=11.2
